- Test: gradient 5% acetonitrile 3 min, to 50% in 2 min, to 85% in 15 min, held 3 min, 100 µL/min
- Condition notes: column: Zorbax Extend-C18 2.1 x 50 mm; eluents: water / acetonitrile, 0.1% formic acid
Measured metric: RP-LC retention time (s)
The response must be a number in s with no trailing unit.

A selection of reference data follows.
INSERT INTO measurements (compound, measured_metric, value_reported) VALUES
  ('O=S(=O)(c1ccc(-c2noc(-c3cccc(Cl)c3)n2)cc1)N1CCCC1', 'RP-LC retention time', 1260),
  ('COc1ccc(Br)c(C(=O)NCC#CCN(C(C)C)C(C)C)c1', 'RP-LC retention time', 567),
  ('CC(C)c1cnc2c(c1SCc1ccccn1)c(=O)n(C)c(=O)n2C', 'RP-LC retention time', 737);

Next compound, please.
Query block: Tell me RP-LC retention time reported for CCOC(=O)c1c(S(=O)(=O)N2CCC(C(=O)NC(C)CC)CC2)c(C)n(C)c1C (stereo not given)
Result block: 747

----------
RP-LC retention time values by entry
- Test: gradient 5% acetonitrile 3 min, to 50% in 2 min, to 85% in 15 min, held 3 min, 100 µL/min
- Condition notes: column: Zorbax Extend-C18 2.1 x 50 mm; eluents: water / acetonitrile, 0.1% formic acid
Value expressed in s; do not type the unit.

INSERT INTO measurements (compound, value_reported) VALUES
  ('Cc1ccc(C(=O)N(c2ccc(Br)cc2)C2C=CS(=O)(=O)C2)cc1 (stereo not given)', 835),
  ('Cc1ccc(-c2csc(Nc3ccc(Br)cn3)n2)c(C)c1', 1330),
  ('CC(C)CCNC(=O)CN1c2ccc(F)cc2-c2ccccc2S1(=O)=O', 963),
  ('O=C(CN1C[C@H]2C[C@H](C1)[C@H]1CCCC(=O)N1C2)NCCC1=CCCCC1', 627);

Query block: Given COCCNC(=O)C1CCN(C(=O)c2ncn3c2COC(c2ccc(OC)cc2)C3)CC1 (stereo not given) , respond with its RP-LC retention time.
Result block: 658

Query block: Provide only the value of recorded RP-LC retention time for CCc1nccn1Cc1nc(-c2ccc(F)c(Cl)c2)no1
Result block: 669

Query block: Specify reported RP-LC retention time for the compound shown: CCN(c1ccc(OC)cc1)S(=O)(=O)c1ccc2c(c1)CCCC(=O)N2
Result block: 804

Query block: Provide one value: measured RP-LC retention time of COC(=O)c1cccc(-c2nc(-c3nnn(Cc4ccccc4)c3C)no2)c1
Result block: 1010

Query block: Let me know recorded RP-LC retention time for Cc1ccc(-c2[nH]ncc2CN2CCC3(CC2)CC(O)CCO3)cc1 (stereo not given) , thanks.
Result block: 588

Query block: Using known records, supply RP-LC retention time for Cn1nc(-c2nc(Cc3ccccc3)no2)c2c1CCN(C(=O)Nc1ccccc1)C2
Result block: 905

----------
- Test: gradient 5% acetonitrile 3 min, to 50% in 2 min, to 85% in 15 min, held 3 min, 100 µL/min
- Condition notes: column: Zorbax Extend-C18 2.1 x 50 mm; eluents: water / acetonitrile, 0.1% formic acid
Here, each record is paired with measured RP-LC retention time data.
Could you give me the number in s? Just the number is fine.

Solved entries:
INSERT INTO assay_data (compound, unit_tag, value_reported) VALUES
  ('Cc1ccc(F)cc1S(=O)(=O)N1CCn2c(nnc2C2CCN(C(C)C)C2)C1 (stereo not given)', 's', 608),
  ('CC1CN(CCc2ccccc2)c2nc3c(c(=O)n(CCN4CCOCC4)c(=O)n3C)n2C1 (stereo not given)', 's', 680),
  ('c1ccc(C(O[C@@H]2CCCN(CCc3ccc4c(c3)OCO4)C2)c2ccccc2)cc1', 's', 961),
  ('COc1ccc(NC(=O)C2CCCN(c3nccnc3Sc3ccccc3)C2)cc1F (stereo not given)', 's', 1050);

// next item, RP-LC retention time requested
Query block: For Cc1ccsc1C(=O)Nc1cccc(-c2nnc3n2CCCC3)c1 , write its RP-LC retention time.
Result block: 640
